Recorded values, source patent US10995091B2.

The following molecules are shown together with reported Ki values.
- Study Target: Human CXCR4 transfected HEK293 cells (Homo sapiens)
- Sequence (P61073 whole entry): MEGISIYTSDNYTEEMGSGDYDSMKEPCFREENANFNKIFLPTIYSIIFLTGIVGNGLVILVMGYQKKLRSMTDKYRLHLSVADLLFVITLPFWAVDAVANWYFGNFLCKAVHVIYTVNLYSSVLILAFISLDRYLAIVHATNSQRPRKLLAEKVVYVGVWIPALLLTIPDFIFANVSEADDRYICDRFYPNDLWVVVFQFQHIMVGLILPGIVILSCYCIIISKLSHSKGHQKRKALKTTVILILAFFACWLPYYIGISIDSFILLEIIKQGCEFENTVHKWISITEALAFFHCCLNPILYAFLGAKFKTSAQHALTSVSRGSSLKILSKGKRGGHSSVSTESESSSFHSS
- Test Summary: CXCR4 functional calcium assay (calcium flux FLIPR, antagonism of SDF1 response)
- Test Parameters: CXCR4 functional activity, antagonism of SDF1 (EC50 concentration), read-out: CXCR4 fKi
Property Measured: Ki

| Smiles Repr | Value |
| --- | --- |
| O=C(NCC1CC1)c1cccc(N2CCCN(C3CCN(Cc4cccc(Cl)c4)CC3)CC2)n1 | 100 to 500 nM |
| CC(C)N1CCC(N2CCCN(c3cccc(-c4noc(C(C)(C)C)n4)n3)CC2)CC1 | 500 to 1000 nM |
| CCCc1[nH]c(-c2cccc(N3CCCN(C4CCN(C(C)C)CC4)CC3)n2)nc1C | < 20 nM |
| CC(C)N1CCC(N2CCCN(c3cccc(-c4cc5cnccc5[nH]4)n3)CC2)CC1 | 100 to 500 nM |
| O=C(NCc1ccncc1)c1cccc(N2CCCN(C3CCN(Cc4ccccc4Cl)CC3)CC2)n1 | < 20 nM |
